Protein target, amino acids: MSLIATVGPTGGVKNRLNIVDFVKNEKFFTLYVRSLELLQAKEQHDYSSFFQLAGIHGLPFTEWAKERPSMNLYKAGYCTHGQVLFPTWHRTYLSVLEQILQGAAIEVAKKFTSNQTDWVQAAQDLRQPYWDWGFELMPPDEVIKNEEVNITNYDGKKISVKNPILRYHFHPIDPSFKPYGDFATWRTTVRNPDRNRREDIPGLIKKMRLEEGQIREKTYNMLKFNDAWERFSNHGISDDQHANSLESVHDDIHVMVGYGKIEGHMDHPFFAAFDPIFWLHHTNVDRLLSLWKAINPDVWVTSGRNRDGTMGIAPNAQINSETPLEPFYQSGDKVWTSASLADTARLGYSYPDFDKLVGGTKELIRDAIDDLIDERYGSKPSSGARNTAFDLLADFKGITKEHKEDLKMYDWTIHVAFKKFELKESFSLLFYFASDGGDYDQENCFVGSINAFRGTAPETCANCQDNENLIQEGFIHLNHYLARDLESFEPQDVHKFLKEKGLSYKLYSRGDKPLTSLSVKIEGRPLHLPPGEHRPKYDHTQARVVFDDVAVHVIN
pIC50: −log10 of the molar value.
Quick reference for pIC50 among some molecules

| smiles_string | pIC50 |
| --- | --- |
| CCOC(=O)/C=C/c1cc(=O)c(O)co1 | 4.44 |
| CC(C)OC(=O)/C=C/c1cc(=O)c(O)co1 | 4.10 |
| COCCOCCOC(=O)/C=C/c1cc(=O)c(O)co1 | 4.23 |
| O=C(/C=C/c1cc(=O)c(O)co1)OCCOCCOCCO | 4.10 |
| COCCOC(=O)/C=C/c1cc(=O)c(O)co1 | 4.01 |

----------
# System: B16-F10
# assay_protocol: Cytotoxicity against mouse B16F10 cells at 40 ug/ml after 72 hrs by MTT assay
# Type: functional
Outcome: rule met for Activity of at least 70%; rule not met for anything lower.

| smiles_string | class_label |
| --- | --- |
| O=C(/C=C/c1cc(=O)c(O)co1)OCCO | rule met |
| O=C(/C=C/c1cc(=O)c(O)co1)OCCOCCO | rule met |
| CCCCCCCCOC(=O)/C=C/c1cc(=O)c(O)co1 | rule not met |
| COCCOC(=O)/C=C/c1cc(=O)c(O)co1 | rule not met |
| COCCOCCOCCOC(=O)/C=C/c1cc(=O)c(O)co1 | rule met |
| CC(C)OC(=O)/C=C/c1cc(=O)c(O)co1 | rule not met |
| COCCOCCOC(=O)/C=C/c1cc(=O)c(O)co1 | rule met |
| O=C(/C=C/c1cc(=O)c(O)co1)OCCOCCOCCO | rule met |
| CCOC(=O)/C=C/c1cc(=O)c(O)co1 | rule not met |
